Test system: Mycosphaerlla melonis
Assay: Ex vivo mycelial growth inhibition, growth rate method
Format: cell-based
Conditions: 1 mg/mL
Cut-off 80% on inhibition at 1000 µg/mL, inclusive. At or above means y; below means n.

Data request: Confirm if inhibition at 1000 µg/mL reported for the compound COc1ccc(C(=CC(=O)N2CCOCC2)c2ccc(Cl)cc2)cc1OC [Dimethomorph] is 80% or above.
Data returned: n

Data request: Likewise for "CCCNC(=O)/C=C/c1ccc2c(c1)OCO2" ?
Data returned: y

Data request: Request: "O=C(/C=C/c1ccc2c(c1)OCO2)N1CCCCC1"
Data returned: y

Data request: Note, next up: CC12CC1(C)C(=O)N(c1cc(Cl)cc(Cl)c1)C2=O (stereo not shown) [Procymidone, procymidone]
Data returned: y

Data request: Further, for CO/C=C(/C(=O)OC)c1ccccc1Oc1cc(Oc2ccccc2C#N)ncn1 [Azoxystrobin, azoxystrobin] ?
Data returned: n

Data request: Please answer likewise for N#Cc1c(Cl)c(Cl)c(Cl)c(C#N)c1Cl [Chlorothalonil, chlorothalonil]
Data returned: n

Others:
Data request: Check this compound for inhibition at 1000 µg/mL at or above 80%: COC(=O)Nc1nc2ccccc2[nH]1 [Carbendazim, carbendazim]
Data returned: y
